Catalogue of Proxy for plastic degradation values
- Substrate: pcPET (post-consumer)
- assayProtocol: Proxy for plastic degradation [Released monomer concentration (HPLC/LC-MS) (TPA+MHET+BHET)]
- measurementSetup: pH 9; 40 °C; 24 h
Numeric only. Scale: µM

# lookup: Proxy for plastic degradation of unnamed (protein) MLSFLRSTGRPERRRASLPALLLFTAALVASGLTAAPAAQAADNPYQRGPDPTNASIEAATGPFAVGTQPIVGASGFGGGQIYYPTDTSQTYGAVVIVPGFISVWAQLNWLGPRLASQGFVVIGIETSVITDLPDPRGDQALAALDWATTRSPVASRIDRTRLAAAGWSMGGGGLRRAALQRPSLKAIVGMAPWNGERNWSAVCVPTLFFGGSSDAVASPNDHAKPFYNSITCAEKDYIELRNADHFFPTSANTTMAKYFISWLKRWVDNDTRYTQFLCPGPSTGLFAPVSASMNTCPF
590

Queued: unnamed (protein) MLSFLRSTGRPERRRASLPALLLFTAALVASGLTAAPAAQAADNPYQRGPDPTNASIEAATGPFAVGTQPIVGASGFGGGQIYYPTDTSQTYGAVVIVPGFISVWAQLAWLGPRLASQGFVVIGIETSVITDLPDPRGDQALAALDWATTRSPVASRIDRTRLAAAGWSMGGGGLRRAALQRPSLKAIVGMAPWNGERNWSAVTVPTLFFGGSSDAVASPNDHAKPFYNSITRAEKDYIELRNADHFFPTSANTTMAKYFISWLKRWVDNDTRYTQFLCPGPSTGLFAPVSASMNTCPF
720

Queued: unnamed (protein) MLSFLRSTGRPERRRASLPALLLFTAALVASGLTAAPAAQAADNPYQRGPDPTNASIEAATGPFAVGTQPIVGASGFGGGQIYYPTDTSQTYGAVVIVPGFISVWAQLAWLGPRLASQGFVVIGIETSTITDLPDPRGDQALAALDWATTRSPVRSRIDRTRLAAAGWSMGGGGLRRAACQRPSLKAIVGMAPWNGEKNWSCVTVPTLFFGGSSDAVASPNDHAKPFYNSITRAEKDYIELCNADHFFPTSANTTMAKYFISWLKRWVDNDTRYTQFLCPGPSTGLFAPVCASMNTCPF
1250

Queued: unnamed (protein) MLSFLRSTGRPERRRASLPALLLFTAALVASGLTAAPAAQAADNPYQRGPDPTNASIEAATGPFAVGTQPIVGASGFGGGQIYYPTDTSQTYGAVVIVPGFISVWAQLNWLGPRLASQGFVVIGIETSVITDLPDPRGDQALAALDWATTRSPVASRIDRTRLAAAGWSMGGGGLRRAALQRPSLKAIVGMAPWNGEKNWSAVTVPTLFFGGSSDAVASPNDHAKPFYNSITRAEKDYIELRNADHFFPTSANTTMAKYFISWLKRWVDNDTRYTQFLCPGPSTGLFAPVSASMNTCPF
950

Queued: unnamed (protein) MLSFLRSTGRPERRRASLPALLLFTAALVASGLTAAPAAQAADNPYQRGPDPTNASIEAATGPFAVGTQPIVGASGFGGGQIYYPTDTSQTYGAVVIVPGFISVWAQLNWLGPRLASQGFVVIGIETSVITDLPDPRGDQALAALDWATTRSPVASRIDRTRLAAAGWSMGGGGLRRAALQRPSLKAIVGMAPWNGERNWSATTVPTLFFGGSSDAVASPNDHAKPFYNSITRAEKDYIELRNADHFFPTSANTTMAKYFISWLKRWVDNDTRYTQFLCPGPSTGLFAPVSASMNTCPF
170

Queued: unnamed (protein) MLSFLRSTGRPERRRASLPALLLFTAALVASGLTAAPAAQAADNPYQRGPDPTNASIEAATGPFAVGTQPIVGASGFGGGQIYYPTDTSQTYGAVVIVPGFISVWAQLNWLGPRLASQGFVVIGIETSVITDLPDPRGDQALAALDWATTRSPVASRIDRTRLAAAGWSMGGGGLRRAALQRPSLKAIVGMAPWNTERNWSAVTVPTLFFGGSSDAVASPNDHAKPFYNSITRAEKDYIELRNADHFFPTSANTTMAKYFISWLKRWVDNDTRYTQFLCPGPSTGLFAPVSASMNTCPF
840

Queued: unnamed (protein) MLSFLRSTGRPERRRASLPALLLFTAALVASGLTAAPAAQAADNPYQRGPDPTNASIEAATGPFAVGTQPIVGASGFGGGQIYYPTDTSQTYGAVVIVPGFISVWAQLNWLGPRLASQGFVVIGIETSVITDQPDPRGDQALAALDWATTRSPVASRIDRTRLAAAGWSMGGGGLRRAALQRPSLKAIVGMAPWNGERNWSAVTVPTLFFGGSSDAVASPNDHAKPFYNSITRAEKDYIELRNADHFFPTSANTTMAKYFISWLKRWVDNDTRYTQFLCPGPSTGLFAPVSASMNTCPF
470

Queued: unnamed (protein) MLSFLRSTGRPERRRASLPALLLFTAALVASGLTAAPAAQAADNPYQRGPDPTNASIEAATGPFAVGTQPIVGASGFGGGQIYYPTDTSQTYGAVVIVPGFISVWAQLNWLGPRLASQGFVVIGIETSVITDLPDPRGDQALAALDWATTRSPVRSRIDRTRLAAAGWSMGGGGLRRAACQRPSLKAIVGMAPWNGERNWSCVTVPTLFFGGSSDAVASPNDHAKPFYNSITRAEKDYIELCNADHFFPTSANTTMAKYFISWLKRWVDNDTRYTQFLCPGPSTGLFAPVCASMNTCPF
948
